- PROTOCOL: Phase 1 clinical trial: COMPOUND A plasma pharmacokinetics
- Format: in vivo, human
- EXPERIMENTAL CONTEXT: human, plasma, po, 8 mg, C1D1; 8 mg QD oral monotherapy, N=7; geometric mean (CV %); read-out: AUC24
REPORTED PROPERTY: AUC (ng·h/mL)
Answer format: numeric, ng·h/mL implied, no suffix.

AUC reported for this molecule COc1ccccc1S(=O)(=O)Nc1noc2cc(Cn3cccn3)cc(OC)c12 : 20500

###

- PROTOCOL: Phase 1 clinical trial: COMPOUND A plasma pharmacokinetics
- Format: in vivo, human
- EXPERIMENTAL CONTEXT: human, plasma, po, 5 mg, C1D1; 5 mg QD oral monotherapy, N=4; geometric mean (CV %); read-out: AUC24
REPORTED PROPERTY: AUC (µg·h/mL)
Answer format: numeric, µg·h/mL implied, no suffix.

AUC reported for this molecule COc1ccccc1S(=O)(=O)Nc1noc2cc(Cn3cccn3)cc(OC)c12 [COMPOUND A] : 8.9

###

- PROTOCOL: Phase 1 clinical trial: COMPOUND A plasma pharmacokinetics
- Format: in vivo, human
- EXPERIMENTAL CONTEXT: human, plasma, po, 8 mg, C1D15 (steady state); 8 mg QD oral monotherapy, N=7; geometric mean (CV %)
- Method: The patients in this trial are intolerant of or resistant to standard therapy. COMPOUND A was orally administered at 2 mg, 5 mg, 8 mg, and 15 mg QD alone or 5 mg QD in combination with 500 mg of fulvestrant. Preliminary pharmacokinetic parameters are available from 23 participants following the 1st oral dose (Day 1 of Cycle 1) and at steady state (Day 15 of Cycle 1) and presented in Table 1. […]
REPORTED PROPERTY: Cmax (ng/mL)
Answer format: numeric, ng/mL implied, no suffix.

Cmax reported for this molecule COc1ccccc1S(=O)(=O)Nc1noc2cc(Cn3cccn3)cc(OC)c12 [COMPOUND A] : 3620

###

- PROTOCOL: Phase 1 clinical trial: COMPOUND A plasma pharmacokinetics
- Assay type: in vivo, human
- EXPERIMENTAL CONTEXT: human, plasma, po, 15 mg, C1D15; 15 mg QD oral monotherapy, N=6; geometric mean (CV %); read-out: AUC24
REPORTED PROPERTY: AUC (µg·h/mL)
Answer format: numeric, µg·h/mL implied, no suffix.

AUC reported for this compound COc1ccccc1S(=O)(=O)Nc1noc2cc(Cn3cccn3)cc(OC)c12 : 127

###

- PROTOCOL: Phase 1 clinical trial: COMPOUND A plasma pharmacokinetics
- Type: in vivo, human
- EXPERIMENTAL CONTEXT: human, plasma, po, C1D1; 5 mg QD oral in combination with fulvestrant, N=4; geometric mean (CV %); read-out: AUC24
REPORTED PROPERTY: AUC (ng·h/mL)
Answer format: numeric, ng·h/mL implied, no suffix.

AUC reported for this compound COc1ccccc1S(=O)(=O)Nc1noc2cc(Cn3cccn3)cc(OC)c12 [COMPOUND A] : 12100

###

- PROTOCOL: Phase 1 clinical trial: COMPOUND A plasma pharmacokinetics
- Assay type: in vivo, human
- EXPERIMENTAL CONTEXT: human, plasma, po, 8 mg, C1D15; 8 mg QD oral monotherapy, N=7; geometric mean (CV %); read-out: AUC24
REPORTED PROPERTY: AUC
# output: numeric value plus its unit

AUC reported for this molecule COc1ccccc1S(=O)(=O)Nc1noc2cc(Cn3cccn3)cc(OC)c12 [COMPOUND A] : 76500 ng·h/mL
